# Test system: CEM cells HIV-1 protection, formazan growth assay
# Test Summary: NCI AIDS Antiviral Assay
# Stated Conditions: measured here: growth of uninfected CEM cells
pIC50: −log10 of the molar value.

Compound	Censor Symbol	pIC50
COC(=O)C(Cc1ccccc1)NC(=O)c1ccc(CNC(=S)NCc2cccc(CNC(=S)NCc3ccccc3)c2)cc1 (configuration not stated)	=	3.83
CC(=O)N(CCc1ccccc1)C(C)(C#N)c1ccccc1 (configuration not stated)	<	3.70
O=C(NNS(=O)(=O)c1ccccc1)c1csc(NC(=S)NC2CCCCC2)n1	=	4.54
CC(C)Cn1cnnc1NS(=O)(=O)c1cc(C(=O)NN)c(Cl)cc1S	<	3.70
CC(C)CC(F)(C(N)=O)C(N)=O	<	3.70
Cc1ccc(/C=C/C(=O)C(C)C)cc1	=	4.15
O=C1NC(=O)C(=Cc2cccc(F)c2)C(=O)N1	<	3.95
O=C(c1cccc(OCc2ccccc2)c1OCc1ccccc1)N1CCSC1=S	=	5.04
O=c1c(CCO)c(C2CC2)n2n1CCCC2	<	3.70
N#C/C(C(=O)NCc1ccccc1)=C(/N)N1CCCC1	<	3.70
COc1cccc2c1C(c1cccc3ccccc13)OC2=O (configuration not stated)	=	5.10
CCOP(=O)(OCC)/C(C#N)=C/C=C/c1ccco1	=	3.83
CC(=O)Nc1ccc(/C=N/Nc2nnc(N/N=C/c3ccc(NC(C)=O)cc3)c3ccccc23)cc1	=	5.12
O=C1C2CCCC1C1/C(=[N+](/[O-])O)C=C([N+](=O)[O-])C2C1[N+](=O)[O-] (configuration not stated)	<	3.63
O=[N+]([O-])/C(C(Cl)=C(Cl)Cl)=C(/Cl)SCc1ccccc1	=	4.96
COc1ccc(/C=C/c2ccnc3ccccc23)cc1	=	4.85
O=C(Cc1ccccc1)N/N=C(/c1nc2ccc([N+](=O)[O-])cc2[nH]c1=O)C(O)c1ccccc1Cl (configuration not stated)	<	4.14
COC1/C=C/OC2(C)Oc3c(C)c(O)c4c(O)c(c(C=NN5CCCCCCCCCC5)c(O)c4c3C2=O)NC(=O)/C(C)=C/C=C/C(C)C(O)C(C)C(O)C(C)C(OC(C)=O)C1C (configuration not stated)	=	5.21
O=S1(c2ccccc2)=NC(=S)Nc2ccccc21 (configuration not stated)	<	3.70
O=C1OC(C(=O)O)c2ccc3c(c21)OCO3 (configuration not stated)	<	3.40
[O]=[Sb][c]1ccc(Br)cc1	=	5.34
COc1cc2c(cc1OC)C13CCC(O)CC1=CC2(C)O3 (configuration not stated)	<	3.19

----------
# Test system: CEM cells HIV-1 protection, formazan growth assay
# Test Summary: NCI AIDS Antiviral Assay;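 active means compounds giving half or more protection of infected cells from virus-caused growth loss, again on retest; inactive means the rest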
Classes used: 1 for active, -1 for inactive

Compound	System	Discrete Label
COC(=O)C1CCCN1C(=O)OC(C)(C)C (stereo not given)	CEM cells HIV-1 protection, formazan growth assay	-1
CCOC(=O)C(C(=O)OCC)C1c2ccccc2-c2ccccc21	CEM cells HIV-1 protection, formazan growth assay	-1
Clc1ccc(Cc2nc3ccccc3s2)c(Cl)c1	CEM cells HIV-1 protection, formazan growth assay	-1
O=c1cc(-c2ccccc2)oc2ccc(Oc3nnnn3-c3ccccc3)cc12	CEM cells HIV-1 protection, formazan growth assay	-1
COc1cc2c3cc1Oc1c(OC)c(OC)cc4c1C(Cc1ccc(cc1)Oc1cc(ccc1O)CC3N(C)CC2)N(C)CC4 (stereo not given)	CEM cells HIV-1 protection, formazan growth assay	-1
O=[N+]([O-])/C(C(Cl)=C(Cl)Cl)=C(/Cl)SCc1ccccc1	CEM cells HIV-1 protection, formazan growth assay	-1
O=C1NC2(CCCCC2)C(=O)N1CCN(CCCl)CCCl	CEM cells HIV-1 protection, formazan growth assay	-1
O=C1C(=O)N(c2cccc(C(F)(F)F)c2)C(=S)N1c1ccccc1	CEM cells HIV-1 protection, formazan growth assay	-1
O=C(NN1C(=O)C(Cl)C1c1cccc(O)c1)c1ccccc1O (stereo not given)	CEM cells HIV-1 protection, formazan growth assay	-1
COC(=O)C1=CCS(=O)(=O)C1	CEM cells HIV-1 protection, formazan growth assay	-1
O=C(Cn1c2c(c3ccccc31)CCCC2)N1CCCC1	CEM cells HIV-1 protection, formazan growth assay	-1
COC(=O)[C@@H]1c2[nH]c3ccccc3c2C[C@@H]2c3ccccc3NC(=O)[C@@H]21	CEM cells HIV-1 protection, formazan growth assay	-1
CNP(=S)(Oc1cc(Cl)c(Cl)cc1Cl)N1CCN(c2ccc(Cl)cc2)CC1 (stereo not given)	CEM cells HIV-1 protection, formazan growth assay	-1
CCOc1ccc(N2C(=O)C3c4[nH]c5ccccc5c4C4CCC(C(C)(C)C)CC4C3C2=O)cc1 (stereo not given)	CEM cells HIV-1 protection, formazan growth assay	-1
Cn1cnc([N+](=O)[O-])c1Sc1nnnn1-c1ccccc1	CEM cells HIV-1 protection, formazan growth assay	-1
Cc1nn(C(=O)c2ccccc2O)c2c1C(c1ccc3ccccc3c1O)SC(N)=N2 (stereo not given)	CEM cells HIV-1 protection, formazan growth assay	-1
O=C1c2ccccc2C(=O)[C@@]23O[C@@]12C1(Oc2cccc4cccc(c24)O1)[C@@H]1O[C@@H]1[C@@H]3O	CEM cells HIV-1 protection, formazan growth assay	-1
CC(C)CCCC(C)[C@H]1CC[C@H]2[C@@H]3CC[C@H]4C[C@@H](CCC=C(c5cc(Cl)c(OC(=O)C(C)(C)C)c(C(=O)O)c5)c5cc(Cl)c(OC(=O)C(C)(C)C)c(C(=O)O)c5)CC[C@]4(C)[C@H]3CC[C@]12C (stereo not given in full)	CEM cells HIV-1 protection, formazan growth assay	1
NC(=O)C1c2ccccc2C=Cc2ccccc21	CEM cells HIV-1 protection, formazan growth assay	-1
CC1CCCOc2ccc(cc2)C=Nc2ccc(cc2)CCc2ccc(cc2)N=Cc2ccc(cc2)OCCC1 (stereo not given)	CEM cells HIV-1 protection, formazan growth assay	-1
COC/N=C(\NC#N)NCOC	CEM cells HIV-1 protection, formazan growth assay	-1
CCCCn1c(-c2ccccc2)cs/c1=N\N=C1C=C(C(C)(C)C)C(=O)C(C(C)(C)C)=C1	CEM cells HIV-1 protection, formazan growth assay	-1
CC(O[Si](c1ccccc1)(c1ccccc1)C(C)(C)C)[C@H](NC(=O)OC(C)(C)C)C(=O)O (stereo not given in full)	CEM cells HIV-1 protection, formazan growth assay	-1
OC1(c2ccc(Cl)cc2)c2ccccc2-c2nc3ccccc3n21 (stereo not given)	CEM cells HIV-1 protection, formazan growth assay	-1
COC(=O)c1ccc(CSc2ccccc2C(=O)O)cc1	CEM cells HIV-1 protection, formazan growth assay	-1
Cc1ccc2c(=O)c3cccc(CC(=O)O)c3[nH]c2c1C	CEM cells HIV-1 protection, formazan growth assay	-1
CSc1nc2nc(C)c(C)nc2c(=O)[nH]1	CEM cells HIV-1 protection, formazan growth assay	-1
CC(C)[Si](OC12CCC(CC1O)CC2C(=O)O)(C(C)C)C(C)C (stereo not given)	CEM cells HIV-1 protection, formazan growth assay	-1
COC(=O)[C@@H](NC(=O)N(CCC#N)CCNc1ccccc1)C(C)C	CEM cells HIV-1 protection, formazan growth assay	-1
CCOC(=O)/C(C#N)=C/c1ccc(F)cc1	CEM cells HIV-1 protection, formazan growth assay	-1
O=C(CN1CCCCC1)c1ccc2c(c1)Cc1cc(C(=O)CN3CCCCC3)ccc1O2	CEM cells HIV-1 protection, formazan growth assay	-1
CC(C)O/N=C/c1cc(NC(=S)OC(C)C)ccc1Cl	CEM cells HIV-1 protection, formazan growth assay	1
COc1c(Cl)cc(Cc2cc(C(=CCC[C@H]3CC[C@@]4(C)[C@@H](CC[C@@H]5[C@@H]4CC[C@]4(C)[C@@H](C(C)CCCC(C)C)CC[C@@H]54)C3)c3cc(Cc4cc(Cl)c(OC)c(C(=O)O)c4)c(OC)c(C(=O)O)c3)cc(C(=O)O)c2OC)cc1C(=O)O (stereo not given in full)	CEM cells HIV-1 protection, formazan growth assay	1
O=C(Nc1ccc(Cl)c(Cl)c1)C(=O)C(C(=O)c1ccccc1-c1ccccc1)C1OC(=O)c2ccccc21 (stereo not given)	CEM cells HIV-1 protection, formazan growth assay	-1
CC(Cc1cccc2c1Nc1ccccc1S2)N(C)CCO (stereo not given)	CEM cells HIV-1 protection, formazan growth assay	-1
Cc1ccnc(NC(=S)Nc2cccc(Cl)c2)c1	CEM cells HIV-1 protection, formazan growth assay	-1
CN(C(=O)C12C3C4C1C1C2C3C41C(O)C(C)(C)C)C(C)(C)C (stereo not given)	CEM cells HIV-1 protection, formazan growth assay	-1
O=c1[nH]nc(-c2ccc([N+](=O)[O-])cc2)n1/N=C/c1ccc([N+](=O)[O-])cc1	CEM cells HIV-1 protection, formazan growth assay	-1
Cc1cccc(C)c1NC(=O)CCc1n[nH]c(=S)o1	CEM cells HIV-1 protection, formazan growth assay	-1
CCCC1N2CCCCC2[C@@H]2c3[nH]c4ccccc4c3CCN12 (stereo not given in full)	CEM cells HIV-1 protection, formazan growth assay	-1
